Overview of recorded IC50 for various molecules
- measured-target: myeloperoxidase (MPO) (Homo sapiens (Human))
- assay-info: MPO chlorination assay (APF assay)
- Type: biochemical
- conditions: potency range class

// worked examples, IC50 included
- molecule: "Nc1cc(Cc2cnn(Cc3ccc(-n4cccn4)cc3)c2)c2nn[nH]c2n1"
  IC50: "101 to 999 nM"
- molecule: "Nc1cc(Cc2ccn(-c3ccccc3)n2)c2nn[nH]c2n1"
  IC50: "101 to 999 nM"
- molecule: "Nc1cc(Cc2cnn(CCC3CCNCC3)c2)c2nn[nH]c2n1"
  IC50: "101 to 999 nM"

Lab note: measured IC50 of NCCN1Cc2ccc(Cn3cc(Cc4cc(N)nc5[nH]nnc45)cn3)cc2C1=O was 101 to 999 nM

Lab note: measured IC50 of Nc1cc(Cc2cnn(Cc3cc([C@@H]4CCNC4)ccc3Cl)c2)c2nn[nH]c2n1 was 101 to 999 nM

Lab note: measured IC50 of Nc1cc(Cc2cnn(Cc3ccc(F)c(Br)c3)c2)c2nn[nH]c2n1 was 1 to 100 nM

Lab note: measured IC50 of Nc1cc(Cc2cnn(Cc3cccc(N4CCN[C@@H](COCc5ccccc5)C4)c3)c2)c2nn[nH]c2n1 was 1 to 100 nM

Lab note: measured IC50 of Nc1cc(Cc2cnn(Cc3cccc(C4CCCN4)c3)c2)c2nn[nH]c2n1 (stereo not drawn) was 1 to 100 nM

Lab note: measured IC50 of COc1cc2cc(Cn3cc(Cc4cc(N)nc5[nH]nnc45)cn3)ccc2cn1 was 101 to 999 nM

---

- measured-target: UniProtKB P05164
- assay-info: MPO chlorination assay (APF assay)
- Type: biochemical
- conditions: potency range class
parameter-measured: IC50

// worked examples, IC50 included
- compound: "Nc1cc(Cc2cnn(Cc3ccc4cc(O)ccc4c3)c2)c2nn[nH]c2n1"
  measured-target: "UniProtKB P05164"
  IC50: "101 to 999 nM"
- compound: "CC1CC(c2cccc(Cn3cc(Cc4cc(N)nc5[nH]nnc45)cn3)c2)CCN1 (stereo not drawn)"
  measured-target: "UniProtKB P05164"
  IC50: "1 to 100 nM"
- compound: "Cc1cc(Cc2cc(N)nc3[nH]nnc23)no1"
  measured-target: "UniProtKB P05164"
  IC50: "101 to 999 nM"
- compound: "Nc1cc(Cc2cnn(-c3cccc(F)c3)c2)c2nn[nH]c2n1"
  measured-target: "UniProtKB P05164"
  IC50: "101 to 999 nM"

So the reported IC50 for Nc1cc(Cc2cnn(Cc3cccc(Br)c3)c2)c2nn[nH]c2n1 , on UniProtKB P05164, turned out to be 1 to 100 nM

So the reported IC50 for Nc1cc(Cc2cnn(Cc3cccc(C4CCNCC4)c3)c2C(F)(F)F)c2nn[nH]c2n1 , on UniProtKB P05164, turned out to be 1 to 100 nM

So the reported IC50 for C[C@@H]1CN(c2cc(Cn3cc(Cc4cc(N)nc5[nH]nnc45)cn3)ccc2F)C[C@H](C)N1 , on UniProtKB P05164, turned out to be 101 to 999 nM

So the reported IC50 for Nc1cc(Cc2cnn(Cc3ccccc3Cl)c2)c2nn[nH]c2n1 , on UniProtKB P05164, turned out to be 1 to 100 nM

So the reported IC50 for Nc1cc(Cc2cnn(Cc3cnn(-c4ccccn4)c3)c2)c2nn[nH]c2n1 , on UniProtKB P05164, turned out to be 101 to 999 nM

---

- measured-target: myeloperoxidase (MPO) (Homo sapiens (Human), UniProt P05164)
- Sequence (P05164 49-745): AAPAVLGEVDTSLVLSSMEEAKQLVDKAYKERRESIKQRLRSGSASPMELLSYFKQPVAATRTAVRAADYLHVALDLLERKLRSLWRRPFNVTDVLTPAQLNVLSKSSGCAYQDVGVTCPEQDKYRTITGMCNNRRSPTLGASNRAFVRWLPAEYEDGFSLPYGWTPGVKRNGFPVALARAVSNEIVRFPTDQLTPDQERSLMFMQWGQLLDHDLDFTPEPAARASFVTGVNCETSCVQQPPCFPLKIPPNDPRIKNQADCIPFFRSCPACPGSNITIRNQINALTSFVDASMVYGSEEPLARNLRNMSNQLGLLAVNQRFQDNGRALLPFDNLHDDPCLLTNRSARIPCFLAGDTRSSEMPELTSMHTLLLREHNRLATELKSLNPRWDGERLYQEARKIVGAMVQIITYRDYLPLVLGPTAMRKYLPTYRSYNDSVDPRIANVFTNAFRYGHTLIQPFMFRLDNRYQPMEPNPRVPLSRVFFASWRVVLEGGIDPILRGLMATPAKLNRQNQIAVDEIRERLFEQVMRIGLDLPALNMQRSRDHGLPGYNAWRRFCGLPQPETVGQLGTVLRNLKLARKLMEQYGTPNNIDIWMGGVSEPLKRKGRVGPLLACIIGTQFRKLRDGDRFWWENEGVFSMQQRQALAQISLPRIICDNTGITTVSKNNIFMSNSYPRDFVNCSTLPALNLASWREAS
- assay-info: MPO chlorination assay (APF assay)
- Type: biochemical
- conditions: potency range class
- Experimental: [formula] where A=minimal Y value (activity level of inhibited sample), B=maximal Y value (activity level of uninhibited sample), C=Log IC50, D=Hill Slope, x=concentration of inhibitor. MPO Chlorination Assay (APF Assay) MPO chlorination activity was measured in 100 mM KPi (pH 7.4) by utilizing the non-fluorescent reagent Aminophenyl fluorescein (APF, Invitrogen Cat. #A36003). APF is cleaved by (—OCl) to yield the fluorescent compound fluorescein. […]
pIC50: −log10 of the molar value.
parameter-measured: pIC50

- compound: "Nc1cc(Cc2cnn(Cc3cccc(C4(O)CCNCC4F)c3)c2)c2nn[nH]c2n1 (centres unmarked) [Example 213]"
  pIC50: "6.00 to 7.00"
- compound: "Nc1cc(Cc2cnn(Cc3cccc(N4CCNC5(CCCCC5)C4)c3)c2)c2nn[nH]c2n1 [Example 223]"
  pIC50: "7.00 to 9.00"
- compound: "Cc1ccccc1-n1cc(Cc2cc(N)nc3[nH]nnc23)cn1 [Example 24]"
  pIC50: "7.00 to 9.00"
- compound: "CCCC1C[C@@H](c2cccc(Cn3cc(Cc4cc(N)nc5[nH]nnc45)cn3)c2)CN1 (some centres unmarked) [Example 204]"
  pIC50: "7.00 to 9.00"
- compound: "Nc1cc(Cc2cnn(-c3cccc(C(F)(F)F)c3)c2)c2nn[nH]c2n1 [Example 14]"
  pIC50: "6.00 to 7.00"
- compound: "Nc1cc(Cc2cnn(Cc3cccc(Oc4cccc(C5CCCN5)c4)c3)c2)c2nn[nH]c2n1 (centres unmarked) [Example 238]"
  pIC50: "7.00 to 9.00"
- compound: "Nc1cc(Cc2cnn(Cc3cccc4c3Cc3ccccc3-4)c2)c2nn[nH]c2n1 [Example 266]"
  pIC50: "6.00 to 7.00"

For the next question, use this compound.
Lab note: measured pIC50 of Nc1cc(Cc2cnn(Cc3cccc(OCC4CCc5ccccc54)c3)c2)c2nn[nH]c2n1 (centres unmarked) [Example 235] was 6.00 to 7.00

---

- measured-target: myeloperoxidase (MPO) (Homo sapiens (Human))
- assay-info: MPO peroxidation assay (Amplex Red assay)
- Type: biochemical
- conditions: potency range class
pIC50: −log10 of the molar value.
parameter-measured: pIC50

- compound: "Nc1cc(Cc2cnn(Cc3ccc4ncsc4c3)c2)c2nn[nH]c2n1 [Example 180]"
  parameter-measured: "pIC50"
  test-result: "7.00 to 9.00"

Lab note: measured pIC50 of Nc1cc(Cc2cnn(Cc3cccc(Oc4cccc5c4CNC5)c3)c2)c2nn[nH]c2n1 [Example 231] was 7.00 to 9.00

Lab note: measured pIC50 of COc1cc2ccc(Cn3cc(Cc4cc(N)nc5[nH]nnc45)cn3)cc2cn1 [Example 172] was 7.00 to 9.00

Lab note: measured pIC50 of Cc1c(Cc2cc(N)nc3[nH]nnc23)cnn1-c1ccc(F)cc1 [Example 2] was 6.00 to 7.00

Lab note: measured pIC50 of CN(C)CCOc1ccc2cc(Cn3cc(Cc4cc(N)nc5[nH]nnc45)cn3)ccc2c1 [Example 69] was 6.00 to 7.00

Lab note: measured pIC50 of Nc1cc(Cc2cnn(Cc3ccc(C(=O)O)cc3)c2)c2nn[nH]c2n1 [Example 46] was 5.00 to 6.00

Lab note: measured pIC50 of Nc1cc(Cc2cnn(CC3CCN(C(=O)OCc4ccccc4)CC3)c2)c2nn[nH]c2n1 [Example 65] was 6.00 to 7.00

Lab note: measured pIC50 of Nc1cc(Cc2cnn(Cc3ccc4c(c3)C(C(F)(F)F)NCC4)c2)c2nn[nH]c2n1 (stereo not drawn) [Example 262] was 6.00 to 7.00

Lab note: measured pIC50 of Nc1cc(Cc2cnn(Cc3cccc(N4CCNC5(CCC5)C4)c3)c2)c2nn[nH]c2n1 [Example 225] was 6.00 to 7.00

Lab note: measured pIC50 of Cc1ccccc1-n1cc(Cc2cc(N)nc3[nH]nnc23)cn1 [Example 24] was 6.00 to 7.00

Lab note: measured pIC50 of Nc1cc(Cc2cnn(Cc3cccc([C@@H]4CNC(=O)C4)c3)c2)c2nn[nH]c2n1 [Example 189] was 7.00 to 9.00

Lab note: measured pIC50 of COc1cc(-n2cc(Cc3cc(N)nc4[nH]nnc34)cn2)ccn1 [Example 32] was 6.00 to 7.00

Lab note: measured pIC50 of Nc1cc(Cc2cnn(Cc3cccc(-c4ccccn4)c3)c2)c2nn[nH]c2n1 [Example 133] was 7.00 to 9.00

Lab note: measured pIC50 of Nc1cc(Cc2cnn(Cc3ccc(Cl)cc3)c2)c2nn[nH]c2n1 [Example 45] was 7.00 to 9.00

---

The listing below reports pIC50 for molecules tested on eosinophil peroxidase (EPX) (Homo sapiens (Human)).
Sequence (P11678 140-715): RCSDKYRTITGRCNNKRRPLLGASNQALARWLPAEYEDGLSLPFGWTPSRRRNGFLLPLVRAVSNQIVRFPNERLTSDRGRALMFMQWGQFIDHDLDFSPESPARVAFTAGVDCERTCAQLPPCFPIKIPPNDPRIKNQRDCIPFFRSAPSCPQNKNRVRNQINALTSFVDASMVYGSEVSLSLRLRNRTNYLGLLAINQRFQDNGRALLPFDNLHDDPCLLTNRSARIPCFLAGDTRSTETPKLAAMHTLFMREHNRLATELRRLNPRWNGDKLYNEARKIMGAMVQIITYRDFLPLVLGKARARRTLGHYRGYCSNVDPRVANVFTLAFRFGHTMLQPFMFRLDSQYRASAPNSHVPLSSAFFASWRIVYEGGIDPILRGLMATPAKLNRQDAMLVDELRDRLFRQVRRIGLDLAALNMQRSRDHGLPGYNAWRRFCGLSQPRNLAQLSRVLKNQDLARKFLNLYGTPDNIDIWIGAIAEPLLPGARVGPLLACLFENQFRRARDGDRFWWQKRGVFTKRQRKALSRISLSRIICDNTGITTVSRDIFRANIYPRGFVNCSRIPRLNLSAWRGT
pIC50: −log10 of the molar value.
parameter-measured: pIC50

// worked examples, pIC50 included
- molecule: "Nc1cc(Cc2cnn(Cc3ccc(CNC4CC4)cc3)c2)c2nn[nH]c2n1"
  measured-target: "eosinophil peroxidase (EPX) (Homo sapiens (Human))"
  pIC50: 7.35
- molecule: "Nc1cc(Cc2cnn(Cc3ccc4c(c3)C(F)(F)CNC4)c2)c2nn[nH]c2n1"
  measured-target: "eosinophil peroxidase (EPX) (Homo sapiens (Human))"
  pIC50: 6.94
- molecule: "Nc1cc(Cc2cn(Cc3ccccc3)nn2)c2nn[nH]c2n1"
  measured-target: "eosinophil peroxidase (EPX) (Homo sapiens (Human))"
  pIC50: 7.70

A. Nc1cc(Cc2cnn(Cc3cccc(C4CCNC4)c3)c2)c2nn[nH]c2n1 (stereo not drawn)
B. Nc1cc(Cc2cnn(Cc3ccc4c(c3)CCNC4)c2)c2nn[nH]c2n1
Q: Pick one: A or B . Which one has the lower reported pIC50? Answer with the label corresponding to your selection.
Result: A
(A: 7.68, B: 8.10)
